Would you mind telling me the reported growth of each entry?
System: PC-3 prostate
Assay: NCI-60 one-dose screen, 48 h (100 = growth as untreated, 0 = no growth, -100 = all killed)
Conditions: 10 µM unless noted
The panel holds about 83,000 compounds, 20% with a hit somewhere; the sample as a whole holds those more often.
Give bare numbers, in %.

# molecule, tested on, readout type, unit label, measured number
records = [
    ("C=C(C)[C@@H]1CC[C@]2(C=O)CC[C@]3(C)[C@H](CC[C@@H]4[C@@]5(C)CCCNC(C)(C)[C@@H]5CC[C@]43C)[C@@H]12", "PC-3 prostate", "growth", "%", 48),
    ("COc1cc(OC)c(/C=C/C(=O)c2ccc(Nc3ncnc4ccccc34)cc2)c(OC)c1", "PC-3 prostate", "growth", "%", 12),
    ("O=C(N/N=C/c1ccc(O)c(O)c1)c1sc2ccccc2c1Cl", "PC-3 prostate", "growth", "%", 66.6),
    ("COc1cc2nc(-c3ccc(-c4nn[nH]n4)cc3)[nH]c(=O)c2cc1OC", "PC-3 prostate", "growth", "%", 131),
    ("COc1ccc(OC)c(/C=C/[C@H]2O[C@@H](C)[C@H](O)[C@@H]2O)c1", "PC-3 prostate", "growth", "%", 106),
    ("COc1ccc(-c2nn(Cc3ccccc3)c3c2-c2oncc2CC3)cc1OC", "PC-3 prostate", "growth", "%", 86.6),
    ("C=C1C(=O)O[C@H]2[C@H]1CC/C(CNC(=O)/C=C/c1ccc(Br)cc1)=C\\CC[C@@]1(C)O[C@@H]21", "PC-3 prostate", "growth", "%", -55.2),
    ("FC(F)(F)c1cccc(Nc2ccccc2)c1", "PC-3 prostate", "growth", "%", 102),
    ("CCCc1cc2c(cc1Br)OCO2", "PC-3 prostate", "growth", "%", 85.7),
    ("O=C(/C=C/c1ccc[nH]1)c1ccc(-n2ccc(C(F)(F)F)n2)cc1", "PC-3 prostate", "growth", "%", 8.84),
]

Count: 5. Required value per item: growth.
1. CC(C)CN(C(=O)c1ccc(Cl)cc1)c1c(N)n(CC(C)C)c(=O)[nH]c1=O
2. CN1CCN(CCCOc2ccc3ncnc(Nc4ccc(Oc5cccc(C(F)(F)F)c5)c(Cl)c4)c3c2)CC1
3. O=S(=O)(NCCNc1nccc(-c2c(-c3cccc(F)c3)nc3occn23)n1)c1cccc2ccccc12
4. C#CC(=O)Nc1cccc(Nc2nc3c(c(NCc4ccccc4)n2)CCCC3)c1
5. CN1CCN(c2ccc3nc(-c4cc(C(C)(C)C)c(O)c(C(C)(C)C)c4)[nH]c3c2)CC1

A.
89.8
7.28
30.6
-66.2
58.7

====

Would you mind telling me the reported growth of each entry?
Tested on: LOX IMVI melanoma
Experiment: NCI-60 one-dose screen, 48 h (100 = growth as untreated, 0 = no growth, -100 = all killed)
Settings: 10 µM unless noted
About 83,000 compounds went through this panel and 20% of them were active in at least one assay; those are over-represented in the sample as a whole.
Give bare numbers, in %.

Previously resolved entries follow.
# molecule, tested on, readout type, unit label, measured number
records = [
    ("c1ccc(-c2nn(-c3ccccc3)[n+](-c3cccc4ccccc34)n2)cc1", "LOX IMVI melanoma", "growth", "%", 12.7),
    ("O=C(N/N=C/c1cccnc1)c1ccccc1Nc1cccc(C(F)(F)F)c1", "LOX IMVI melanoma", "growth", "%", 78.6),
    ("Cc1cc(Nc2cccc(C(F)(F)F)c2)n2c(nc3ccccc32)c1C#N", "LOX IMVI melanoma", "growth", "%", 59.6),
]

Count: 6. Required value per item: growth.
1. Cc1cc2nc(-c3ccccc3)c(-c3ccccc3)nc2cc1C
2. Nc1nc(SN=Nc2ccc(S(N)(=O)=O)cc2)c2[nH]cnc2n1
3. CN1C2CCC1CN(c1cnc(C(=O)Nc3cc(F)cc4cccnc34)cn1)C2
4. COc1ccc(OC)c(/C=C/[C@H]2O[C@@H](C)[C@H](O)[C@@H]2O)c1
5. Cn1c2c(Cl)c(Cl)ccc2c2cc(N)[nH]c(=O)c21
6. CC(=O)OC1CCC2(C)C(CCC3C4CC=C(C(C)=O)C4(C)OC(=O)CC32)C1 (stereo not given)

A.
1. 100
2. -9.46
3. 33.2
4. 99.8
5. 76.1
6. -19.9

Reported growth ( O=c1nc2n(nc1/C=C/c1ccco1)CC(c1ccc(Cl)cc1)=NN2 ) = 113

====

System: SR leukemia
Test: NCI-60 one-dose screen, 48 h (100 = growth as untreated, 0 = no growth, -100 = all killed)
Conditions: 10 µM unless noted
The panel holds about 83,000 compounds, 20% with a hit somewhere; the sample as a whole holds those more often.
Would you mind telling me the reported growth of each entry?
One number for each entry, in %.

# smiles representation, measured number
records = [
    ("CC(=O)O[C@H]1CC[C@@]2(C)[C@@H](CC[C@@H]3[C@@H]2CC[C@@]2(C)[C@H]3CC[C@]2(O)C(C)=O)C1", 91.8),
    ("O=S(=O)(O)c1cc(O)c2c(N=Nc3ccc(Nc4ccccc4)c4c(S(=O)(=O)O)cccc34)cc(S(=O)(=O)O)cc2c1", 111),
    ("N/C(=N\\N=C\\c1cc2ccccc2s1)N/N=C/c1cc2ccccc2s1", 96.8),
]

Okay, next one:
Reported growth ( C=C1C(=O)O[C@H]2[C@H]1CC/C(CNC(=O)/C=C/c1ccc(Br)cc1)=C\CC[C@@]1(C)O[C@@H]21 ) = 0.986

====

Would you mind telling me the reported growth of each entry?
Test system: SK-MEL-5 melanoma
Experiment: NCI-60 one-dose screen, 48 h (100 = growth as untreated, 0 = no growth, -100 = all killed)
Details: 10 µM unless noted
This is part of a sample that, as a whole, favours compounds with a hit. Of some 83,000 tested, about 20% had one in any assay.
Numbers only, in %.

# molecule, growth, %
measured = [
    ("CCCCCCNC(=O)Oc1ccc(/C(=C(/CC)Cc2ccccc2)c2ccc(OCCN(CC)CC)cc2)cc1", 51.2),
]

Count: 2. Required value per item: growth.
1. [O-][n+]1ccccc1CCN(O)CCc1cccc[n+]1[O-]
2. NC(=S)N/N=C(/c1ccccc1)c1ccccc1N

A.
1. 95.3
2. 92.3

====

System: SNB-19 CNS
Experiment: NCI-60 one-dose screen, 48 h
Conditions: 10 µM unless noted
This is part of a sample that, as a whole, favours compounds with a hit. Of some 83,000 tested, about 20% had one in any assay. Activity calls are given as the source filed them. The calls were made as follows: active = growth percent below 10; inactive = the rest.
# output must be one of active, inactive

See these solved cases before continuing.
# compound, category
records = [
    ("COc1ccc(NC(=O)c2sc3nc(C)c(C(O)c4ccc(OC)cc4)cc3c2N)cc1 (stereo not given)", "inactive"),
    ("COc1ccc(-c2nc(SCC(C)C)nc(N/N=C(/C)c3ccc(OC)c(OC)c3)c2C#N)cc1", "inactive"),
    ("COc1cc2nc(-c3ccc(C(F)(F)F)cc3)cc(OCCCN3CCC(O)CC3)c2cc1OC", "inactive"),
]

Q. Per the records of this test, what outcome belongs to Cc1c2c(cc[n+]1Cc1ccc(F)cc1)c1ccc(OCc3cccc(F)c3)cc1n2Cc1cccc(F)c1 ?
A. active

Q. Per the records of this test, what outcome belongs to COc1cc(C2CC(c3cccc(Nc4ccncc4)c3)=NN2c2cc(Cl)cc(Cl)c2)cc(OC)c1OC (stereo not given) ?
A. inactive

====

Tested on: HOP-92 NSCLC
Assay: NCI-60 one-dose screen, 48 h (100 = growth as untreated, 0 = no growth, -100 = all killed)
Settings: 10 µM unless noted
The panel holds about 83,000 compounds, 20% with a hit somewhere; the sample as a whole holds those more often.
Answer Criterion not met if growth is under 80%, and Criterion met if it is 80% or more.

See these solved cases before continuing.
# smiles representation, category
measured = [
    ("Cc1cc(C(=O)Nc2ncnc3nc[nH]c23)no1", "Criterion met"),
    ("C=C1C(=O)O[C@H]2[C@H]1CC/C(CNC(=O)/C=C/c1ccccc1F)=C\\CC[C@@]1(C)O[C@@H]21", "Criterion not met"),
    ("O=C1Nc2cc(-c3ccncc3)ccc2/C1=C/c1ccc[nH]1", "Criterion met"),
    ("O=C(CN1CCOCC1)Nc1ccc2ncnc(Nc3ccc(Oc4cccc(C(F)(F)F)c4)c(Cl)c3)c2c1", "Criterion not met"),
    ("Cc1c(C(=O)NO)sc2ncnc(Nc3ccc(NC(=S)Nc4ccccc4)cc3)c12", "Criterion met"),
]

Q. Confirm if growth reported for the molecule CCCCCCCCOc1ccc(/C=N/Nc2cc(C)nc3ccc(Cl)cc23)cc1 is 80% or above.
A. Criterion not met

Q. Confirm if growth reported for the molecule CS(=O)(=O)OCCN(CCOS(C)(=O)=O)c1ccc(/C=N/Nc2ccc([N+](=O)[O-])cc2[N+](=O)[O-])cc1 is 80% or above.
A. Criterion not met

Q. Confirm if growth reported for the molecule COC(=O)Nc1ccc(NC(=O)OC)cc1 is 80% or above.
A. Criterion met
